Sourced from patent US7732473B2

We begin with a simple list: items and their reported melting point.

Use the examples below as a reference point.
CCOC(=O)c1ccc(N2C(=O)CN3C(=O)CCC32)cc1 (centres unmarked) | 158 to 159 °C
O=C1CCC2N1CC(=O)N2c1cccc(F)c1 (centres unmarked) | 145 to 149 °C
COc1ccc(N2C(=O)CN3C(=O)CCC32)cc1 (centres unmarked) | 210 to 211 °C

Enquiry: Quick check: melting point of O=C1CCC2N1CC(=O)N2c1ccc2ccccc2c1 (centres unmarked) ?
Return: 175 to 176 °C

Enquiry: And O=C(O)c1ccc(N2C(=O)CN3C(=O)CCC32)cc1 (centres unmarked) ?
Return: 252 to 253 °C

---

Known melting point of a selection of compounds

Enquiry: So what's the measured melting point for this one? O=C1CCC2N1CC(=O)N2c1cccc(Cl)c1 (stereo not drawn)
Return: 123 to 125 °C

Enquiry: Please do the same for O=C1CCC2N1CC(=O)N2c1cccs1 (stereo not drawn) as well.
Return: 170 to 171 °C

Enquiry: Also COc1cccc(N2C(=O)CN3C(=O)CCC32)c1 (stereo not drawn) , if possible.
Return: 94 to 95 °C

---

This listing pairs compounds with measured melting point.

O=C1CCC2N1CC(=O)N2c1ccccc1 (stereo not shown) [Example 1] | 185 to 188 °C

Enquiry: Record request: melting point value, item O=C1CCC2N1CC(=O)N2c1cccc(O)c1 (stereo not shown) [Example 15]
Return: 210 to 211 °C

Enquiry: Param item: Cc1ccc(N2C(=O)CN3C(=O)CCC32)nc1 (stereo not shown) [Example 42]
Return: 158 to 159 °C

Enquiry: Queued: Cc1cc(C)cc(N2C(=O)CN3C(=O)CCC32)c1 (stereo not shown) [Example 19]
Return: 103 to 104 °C

Enquiry: What about O=C1C(Cc2ccccc2)N2C(=O)CCC2N1c1ccccc1 (stereo not shown) [Example 24] ?
Return: 134 to 136 °C

Enquiry: Proceed to CC(C)c1cccc(N2C(=O)CN3C(=O)CCC32)c1 (stereo not shown) [Example 22]
Return: 81 to 82 °C

Enquiry: Another compound to look at: CC(C)CC1C(=O)N(c2ccccc2)C2CCC(=O)N12 (stereo not shown) [Example 26]
Return: 101 to 102 °C

Enquiry: Now the same for N#Cc1ccccc1N1C(=O)CN2C(=O)CCC21 (stereo not shown) [Example 43]
Return: 94 to 95 °C

Enquiry: Now the compound Cc1cc(F)cc(N2C(=O)CN3C(=O)CCC32)c1 (stereo not shown) [Example 27]
Return: 111 to 113 °C

Enquiry: Could you do the same for O=C1CCC2N1CC(=O)N2c1ccc(Cl)cc1 (stereo not shown) [Example 14] , please?
Return: 159 to 160 °C

---

QUANTITY: melting point

O=C1CCC2N1CC(=O)N2c1ccc(CO)cc1 (centres unmarked) | 159 to 161 °C
CC12CCC(=O)N1CC(=O)N2c1ccccc1 (centres unmarked) | 154 to 155 °C

Enquiry: Give its melting point value. Item: O=C1CCC2N1CC(=O)N2c1cccnc1 (centres unmarked)
Return: 180 to 182 °C

Enquiry: And Cc1ccc(N2C(=O)CN3C(=O)CCC32)cc1F (centres unmarked) ?
Return: 136 to 137 °C

Enquiry: And then O=C1CCC2N1CC(=O)N2c1ccccn1 (centres unmarked) , what is it?
Return: 139 to 140 °C

Enquiry: Now the same for Cc1ccc(N2C(=O)CN3C(=O)CCC32)cc1C (centres unmarked)
Return: 142 to 143 °C

Enquiry: Same question for N#Cc1ccc(N2C(=O)CN3C(=O)CCC32)cc1 (centres unmarked) please.
Return: 175 to 176 °C

Enquiry: Follow-up entry: O=C1CCC2N1CC(=O)N2c1ccc(F)cc1 (centres unmarked)
Return: 158 to 159 °C

Enquiry: Here is the next compound: CC1C(=O)N(c2ccccc2)C2CCC(=O)N12 (centres unmarked)
Return: 137 to 138 °C

Enquiry: Next up: N#Cc1cccc(N2C(=O)CN3C(=O)CCC32)c1 (centres unmarked)
Return: 128 to 130 °C

Enquiry: Then this compound: Cc1cccc(N2C(=O)CN3C(=O)CCC32)c1 (centres unmarked)
Return: 92 to 93 °C

---

Reported melting point values for the following molecules.

Some solved cases for reference:
CC(C)c1ccc(N2C(=O)CN3C(=O)CCC32)cc1 (stereo not shown) [Example 33] | 124 to 125 °C
CS(=O)(=O)c1ccc(N2C(=O)CN3C(=O)CCC32)cc1 (stereo not shown) [Example 37] | 143 to 145 °C

Enquiry: # query: melting point of entry Cc1cc(Cl)ccc1N1C(=O)CN2C(=O)CCC21 (stereo not shown) [Example 10]
Return: 122 to 124 °C

Enquiry: Follow-up item: Cc1c(F)cccc1N1C(=O)CN2C(=O)CCC21 (stereo not shown) [Example 8]
Return: 135 to 137 °C

---

QUANTITY: melting point

Here is how some compounds turned out for melting point.
Cc1ccccc1N1C(=O)CN2C(=O)CCC21 (stereo not drawn) | 138 to 139 °C
Cc1ccc(F)cc1N1C(=O)CN2C(=O)CCC21 (stereo not drawn) | 147 to 148 °C

Switching to the query record.
Enquiry: Fill in: melting point of Cc1cc(N2C(=O)CN3C(=O)CCC32)ccc1Cl (stereo not drawn) is ___
Return: 138 to 139 °C
